# TARGET_UNDER_TEST: LIGHT on the surface of HEK293-LIGHT stable cells (human, UniProt O43557 1-240)
# Sequence (O43557 whole entry): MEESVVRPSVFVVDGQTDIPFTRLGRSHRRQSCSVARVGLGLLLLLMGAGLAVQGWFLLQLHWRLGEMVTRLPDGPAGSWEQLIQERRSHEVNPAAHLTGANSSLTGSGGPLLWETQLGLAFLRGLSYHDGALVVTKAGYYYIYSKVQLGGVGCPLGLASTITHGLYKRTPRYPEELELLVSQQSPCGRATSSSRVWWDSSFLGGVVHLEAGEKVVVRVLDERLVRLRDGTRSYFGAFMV
# PROTOCOL_SUMMARY: cell-based or functional assay
ATTRIBUTE_MEASURED: IC50, LTβR NF-κB luciferase reporter, HEK293-LIGHT cells (nM)
Write the answer as a number in nM, unit excluded.

What value of measured IC50, LTβR NF-κB luciferase reporter, HEK293-LIGHT cells is listed for hum_LT-m37-15 (antibody, human IgG4, V domains shown, humanized from LT-m37) VH: QVQLVQSGAEVKKPGASVKVSCKASGYSFTGYFINWVRQAPGQGLEWIGRIYPYNVDTFYNQNFKGRATMTADKSTSTAYMELSSLRSEDTAVYYCGRGTHYYGSSGAMDYWGQGTLVTVSS VL: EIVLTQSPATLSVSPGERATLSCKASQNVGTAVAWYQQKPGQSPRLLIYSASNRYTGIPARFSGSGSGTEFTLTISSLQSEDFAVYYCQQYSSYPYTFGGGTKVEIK ?
1.28
